experiment: Plasma pharmacokinetic study; assay type: in vivo, CD-1 mice; conditions: male, CD-1, mouse, plasma, iv, 5 mg/kg, IV 5 mg/kg
propertyLabel: half-life

>>> measvalue("CC(C)=CCOc1cc(OCCCNC(=N)N)cc2oc3cc(OCCCNC(=N)N)ccc3c(=O)c12")
"28.7 min"

---

assay: Plasma pharmacokinetic study; assay type: in vivo, CD-1 mice; conditions: male, CD-1, mouse, plasma; IV 5 mg/kg
propertyLabel: MRT last

>>> measvalue("CC(C)=CCOc1cc(OCCCNC(=N)N)cc2oc3cc(OCCCNC(=N)N)ccc3c(=O)c12 [XT17]")
"24.7 min"

---

assay: Plasma pharmacokinetic study; type: in vivo, CD-1 mice; conditions: male, CD-1, mouse, plasma; IP 20 mg/kg, 0.5 hr
propertyLabel: concentration at 0.5 h

>>> measvalue("CC(C)=CCOc1cc(OCCCNC(=N)N)cc2oc3cc(OCCCNC(=N)N)ccc3c(=O)c12")
"14100 ng/mL"

---

test: Plasma pharmacokinetic study; type: in vivo, CD-1 mice; details: male, CD-1, mouse, plasma; IV 5 mg/kg
propertyLabel: MRT inf (min)

>>> measvalue("CC(C)=CCOc1cc(OCCCNC(=N)N)cc2oc3cc(OCCCNC(=N)N)ccc3c(=O)c12")
25.2

---

experiment: Plasma pharmacokinetic study; type: in vivo, CD-1 mice; conditions: male, CD-1, mouse, plasma; SC 40 mg/kg, 0.083 hr
Description: […]
propertyLabel: concentration at 0.083 h (ng/mL)

>>> measvalue("CC(C)=CCOc1cc(OCCCNC(=N)N)cc2oc3cc(OCCCNC(=N)N)ccc3c(=O)c12")
7730

---

assay: Plasma pharmacokinetic study; type: in vivo, CD-1 mice; details: male, CD-1, mouse, plasma; IP 20 mg/kg, 8 hr
propertyLabel: concentration at 8 h (ng/mL)

>>> measvalue("CC(C)=CCOc1cc(OCCCNC(=N)N)cc2oc3cc(OCCCNC(=N)N)ccc3c(=O)c12 [XT17]")
90.1

---

assay: Plasma pharmacokinetic study; assay type: in vivo, CD-1 mice; conditions: male, CD-1, mouse, plasma, ip, 20 mg/kg, ip 20 mg/kg
Description: […]
propertyLabel: half-life (h)

>>> measvalue("CC(C)=CCOc1cc(OCCCNC(=N)N)cc2oc3cc(OCCCNC(=N)N)ccc3c(=O)c12 [XT17]")
1.02

---

experiment: Plasma pharmacokinetic study; type: in vivo, CD-1 mice; details: male, CD-1, mouse, plasma; IP 20 mg/kg, 2 hr
From the text: […]
propertyLabel: concentration at 2 h (ng/mL)

>>> measvalue("CC(C)=CCOc1cc(OCCCNC(=N)N)cc2oc3cc(OCCCNC(=N)N)ccc3c(=O)c12 [XT17]")
2770

---

assay: Plasma pharmacokinetic study; format: in vivo, CD-1 mice; settings: male, CD-1, mouse, plasma; IP 20 mg/kg, 0.25 hr
propertyLabel: concentration at 0.25 h (ng/mL)

>>> measvalue("CC(C)=CCOc1cc(OCCCNC(=N)N)cc2oc3cc(OCCCNC(=N)N)ccc3c(=O)c12")
18400

---

Test: CCK-8 cytotoxicity assay
Format: cell-based
Conditions: human, HepG2 cells, 6.25 μg/ml, read-out: Viable cells (%) HepG2 cells
Description: Cytotoxicity of the compound tested was assessed by CCK-8 assays as previously described ([71]). […] Following a 24-hour incubation, 10 μl of CCK-8 reagent was added to each well and incubated for 1 hour. The absorbance at 450 nm was measured by a microplate reader. All measurements were repeated three times with duplicates each time.
propertyLabel: viability at 24 h, 6.25 μg/ml (%)

>>> measvalue("CC(C)=CCOc1cc(OCCCNC(=N)N)cc2oc3cc(OCCCNC(=N)N)ccc3c(=O)c12")
110
